Test system: wheat germ agglutinin (Triticum aestivum), Alexa647-labelled
Experiment: Alexa647-WGA lectin binding to printed small molecules – biochemical, small-molecule microarray, 635/667 nm fluorescence, artefact control for SMM control-protein annotation, profiling panel (AID 1140);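 also: score merges 667 nm feature emission with signal to noise over triplicate slides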
Conditions: WGA-A647 binding, 635 nm fluorescence, higher = more signal
recorded.metric: composite z-score
Output: the number by itself.

Ask | Supply composite z-score value. Item: `CCOC(=O)c1cn(C[C@H](Cc2ccccc2)NC(=O)N[C@H](CO)CCc2oc(C(C)=O)c(C(=O)OC)c2C(=O)OC)nn1`
Reply | 0.493

Ask | Report composite z-score for C=CC[C@]1(C(=O)NCC(O)CO)COC(c2ccc(OCCCO)cc2)=N1 (some centres not stated)
Reply | -0.326

Ask | Determine from records and report composite z-score for `CC(C)c1nc2cc(Br)ccc2c(=O)o1`
Reply | 0.834

Ask | // fetch composite z-score given entry `O=C1O[C@H](c2ccccc2)[C@H](c2ccccc2)N2[C@H]1[C@@H](C(=O)O)[C@]1(C(=O)Nc3ccc(C#CCCO)cc31)[C@H]2c1ccc(OCCO)cc1`
Reply | 1.17

Ask | Tell me measured composite z-score for `C=CCNC(=O)[C@@H]1[C@H]2C(=O)O[C@H](c3ccccc3)[C@H](c3ccccc3)N2[C@H](c2ccc(OCCO)cc2)[C@@]12C(=O)Nc1ccc(C#CC3(O)CCCCCC3)cc12` please.
Reply | 1.04

Ask | Using the record for CC(C)C[C@H]1NC(=O)C([C@@H](C)OCc2ccccc2)NC(=O)[C@@]23C(=O)N[C@@H](Cc4ccccc4)C2[C@H](C)[C@@]2(C)O[C@H]2C3/C=C/C/C=C\CNC1=O (some centres not stated) , state its measured composite z-score.
Reply | 0.999

Ask | Please give the documented composite z-score of `O=C1O[C@@H](c2ccccc2)[C@@H](c2ccccc2)N2[C@@H](c3ccc(OCCO)cc3)[C@]3(C(=O)Nc4ccc(C#CC5(O)CCCCCC5)cc43)[C@@H](C(=O)Nc3nc4ccccc4s3)[C@H]12`
Reply | 1.09

* * *

Test: probe aEGFR binding to arrayed compounds – biochemical, biotinylated probe, 635/667 nm fluorescence, primary screen (AID 1097);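 also: probe is a biotinylated anti-EGFR antibody binding compounds printed on slides; score combines fluorescence near 667 nm and signal to noise of each spot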
Details: small-molecule microarray, higher = more signal
// label = yes if composite z-score is not less than 0.0004, otherwise no

Ask | Could you please find out whether `CCOC(=O)c1cn(C[C@H](Cc2ccccc2)NC(=O)N[C@H](CO)CCc2oc(C(C)=O)c(C(=O)OC)c2C(=O)OC)nn1` has composite z-score that meets 0.0004 or exceeds it?
Reply | yes

Ask | API: above_or_equal(metric=composite z-score, cutoff=0.0004) for item `O=C1O[C@H](c2ccccc2)[C@H](c2ccccc2)N2[C@H]1[C@@H](C(=O)N1CCN(c3ncccn3)CC1)[C@]1(C(=O)Nc3ccc(C#CCCO)cc31)[C@H]2c1ccc(O)cc1`
Reply | no

Ask | Please tell me: is the molecule C=C(C)[C@@H]1CC=C(C(O)C2C=CC3C(=O)N(C)C(=O)C3N2Nc2ccc([N+](=O)[O-])cc2[N+](=O)[O-])CC1 (stereo partly specified) at or over 0.0004 in terms of composite z-score?
Reply | yes

Ask | Please check the record `CCCC#C[Si](O[C@H](CC)c1cn(Cc2ccccc2)nn1)(C(C)C)C(C)C` and state if its composite z-score is at or above 0.0004.
Reply | yes

Ask | Textbook exercise: given the entry NC(=O)N1C(=O)C2C(C1=O)C1C=C(CCCO)C2C(c2ccc(CN3CCCC3)cc2)N1Cc1sc2ccccc2c1Cl (stereo unspecified) , state whether its composite z-score is greater than or equal to 0.0004.
Reply | no

Ask | Would you say `CN(C)CCCC[C@@H]1NC(=O)[C@@H]2C[C@H](C(=O)NCCCCCN)[C@H](c3cccc(OCCO)c3)N2C1=O` shows composite z-score at minimum 0.0004?
Reply | no

Ask | Hi, just wondering whether `CCOC(=O)C1=CC[C@@H](c2ccc(OC)cc2)N(S(=O)(=O)c2ccc(C)cc2)[C@H]1c1ccc(C)cc1` shows composite z-score of 0.0004 or higher.
Reply | yes

Ask | Determine whether this molecule has composite z-score no lower than 0.0004: `C=CCNC(=O)[C@H]1[C@@H]2C(=O)O[C@@H](c3ccccc3)[C@@H](c3ccccc3)N2[C@@H](c2ccc(OCCO)cc2)[C@]12C(=O)Nc1ccccc12`
Reply | no

Ask | Say whether `O=C(N1CCOCC1)[C@@]1(Cc2ccccc2)COC(c2ccc(OCCCO)cc2)=N1` shows composite z-score of 0.0004 or more.
Reply | yes

Ask | Assess whether reported composite z-score for C=CCC(OC(C)=O)[C@@H]1[C@@H](N(Cc2cccc3ccccc23)C(=O)Cc2ccc(OC)cc2)c2cc(OCCCO)ccc2N1C(=O)c1ccc2ccccc2c1 (stereo partly specified) sits at 0.0004 or higher.
Reply | no

Ask | Could you please find out whether `CCCCCCc1nc(-c2ccc(-c3ccc(Cl)c(Cl)c3)o2)cc2c1[Si](C(C)C)(C(C)C)OC2` has composite z-score that meets 0.0004 or exceeds it?
Reply | no

Ask | // inclusive: composite z-score at least 0.0004? input: CC(C)C[C@H]1NC(=O)C([C@@H](C)OCc2ccccc2)NC(=O)[C@@]23C(=O)N[C@@H](Cc4ccccc4)C2[C@H](C)[C@@]2(C)O[C@H]2C3/C=C/C/C=C\CNC1=O (stereo partly specified)
Reply | yes

Ask | Can `CC(C)NC(=O)[C@@]1(C)c2ccccc2C(=O)N(Cc2ccccc2)[C@H]1c1ccc(CO)cc1` be said to have composite z-score at or above 0.0004?
Reply | no

Ask | Item `C=CCN1C(=O)[C@@]2(O[C@@H](CCn3cc([C@H](O)c4ccccc4)nn3)[C@H]([Si](C)(C)c3ccc(OC)cc3)[C@H]2C)c2cc(N3C(=O)c4cccc5cccc3c45)ccc21` with composite z-score of 0.0004 or above?
Reply | no

Ask | Quick check: does CCCCC(O)C1C=CC2C(=O)N(c3ccccc3)C(=O)C2N1Nc1ccccc1 (stereo unspecified) have composite z-score greater than or equal to 0.0004?
Reply | no

Ask | Hi team, for CC1CC/C=C\[C@H]2OC34C=CCN(c5ccc(Cl)cc5)C(=O)[C@H]3N(CCCCCCO)C(=O)[C@]4(C)C2C(=O)O1 (stereo partly specified) , is the recorded composite z-score at or above 0.0004?
Reply | no

Ask | Determine whether measured composite z-score meets or exceeds 0.0004 for `COC(=O)[C@@]1(Cc2ccc(OC)cc2)[C@H]2c3cc(C(=O)N4CCCC4)n(Cc4ccc(Cl)c(C(F)(F)F)c4)c3C[C@H]2CN1C(=O)c1ccccc1`
Reply | yes

Ask | # check: composite z-score of `CCCC=C(CCC)[C@@H](NC(=O)c1ccc(C(F)(F)F)cc1)c1ccc(C(F)(F)F)cc1` is greater than or equal to 0.0004
Reply | yes

Ask | Item C=CCC(OC(C)=O)[C@@H]1[C@@H](N(Cc2ccc(-c3cccc(C(F)(F)F)c3)o2)C(=O)Cc2ccc(F)cc2)c2cc(OCCCO)ccc2N1C(=O)Cc1ccc2ccccc2c1 (stereo partly specified) with composite z-score of 0.0004 or above?
Reply | no

Ask | Does the reported composite z-score for `CCCCCCc1nc(Cc2cc(OC)c(OC)c(OC)c2)cc2c1[Si](C(C)C)(C(C)C)O[C@H]2c1ccccc1` fall at or above the 0.0004 mark?
Reply | no

Ask | Can C=CCC(OC(C)=O)[C@@H]1[C@@H](N(Cc2cccc3ccccc23)C(=O)c2ccc(-c3ccccc3)cc2)c2cc(OCCCO)ccc2N1C(=O)Cc1ccc2ccccc2c1 (stereo partly specified) be said to have composite z-score at or above 0.0004?
Reply | no

Ask | Could you please find out whether C=CCC(OC(C)=O)[C@@H]1[C@@H](N(Cc2cc3ccccc3o2)C(=O)c2cccc3ccccc23)c2cc(OCCCO)ccc2N1C(=O)c1ccc2ccccc2n1 (stereo partly specified) has composite z-score that meets 0.0004 or exceeds it?
Reply | no

Ask | Exam item: decide whether the reported composite z-score for `COc1ccc([Si](C)(C)[C@H]2[C@H](CCO)O[C@@]3(C(=O)N(Cc4cccc(N5C(=O)c6ccccc6Oc6ccccc65)c4)c4ccccc43)[C@@H]2C)cc1` is at least 0.0004.
Reply | no

Ask | Quick check: does `C=CCOC(=O)[C@H]1[C@@H]2C(=O)O[C@@H](c3ccccc3)[C@@H](c3ccccc3)N2[C@@H](c2ccc(OCCOC(=O)[C@H]3C[C@H]4C(=O)N[C@@H](CC(C)C)C(=O)N4[C@H]3c3ccc(O)cc3)cc2)[C@]12C(=O)Nc1ccccc12` have composite z-score greater than or equal to 0.0004?
Reply | yes

Ask | Answer whether composite z-score of COC(=O)C1=CC(CCCO)=CC(c2cccs2)N(Cc2cc3c(cc2Br)OCO3)C=C1C(=O)OC (stereo unspecified) is greater than or equal to 0.0004.
Reply | yes
